So I've got a bunch of compounds here, and I need their MCC values.
- testProtocol: Cytotoxicity against human HeLa cells assessed as alterations in normal cell morphology measured after 3 to 6 days by microscopic analysis
- Assay type: cell-based

// query Entry under review: "NC1=NC2(CCN(C(=O)C3CCC3)CC2)N(c2cccc(Cl)c2)C(N)=N1" . Reported MCC?
// result > 100 µM

Please look at the items below and tell me MCC for each one, in order.
1. NC(=O)c1ncn([C@@H]2O[C@H](CO)[C@@H](O)[C@H]2O)n1
2. Cl.NC1=NC2(CCCN(Cc3ccccc3)C2)N(c2ccccc2)C(N)=N1 (stereo not given)
3. COCCN1C(N)=NC(N)=NC12CCN(C(=O)Nc1ccc(OC)cc1)CC2
4. CCCN1C(N)=NC(N)=NC12CCN(C(=O)c1c(C)noc1C)CC2

// result
1. > 250 µM
2. > 100 µM
3. > 100 µM
4. > 100 µM

====

So I've got a bunch of compounds here, and I need their MCC values.
- testProtocol: Cytotoxicity against MDCK cells assessed as alterations in normal cell morphology measured after 3 to 6 days by microscopic analysis
- Assay type: cell-based, Canis lupus familiaris
- testConditions: dog

Completed entries (count: 4):
// query Entry under review: "CCS(=O)(=O)N1CCC2(CC1)N=C(N)N=C(N)N2CCOC" . Reported MCC?
// result > 100 µM

// query Entry under review: COCCN1C(N)=NC(N)=NC12CCN(C(=O)NC1CCC(C)CC1)CC2 (stereo not given) . Reported MCC?
// result > 100 µM

// query Entry under review: "COc1cccc(N2C(N)=NC(N)=NC23CCN(C(=O)OC(C)(C)C)CC3)c1" . Reported MCC?
// result ≥ 100 µM

// query Entry under review: "NC1=NC2(CCNCC2)N(c2cccc(Cl)c2)C(N)=N1" . Reported MCC?
// result > 100 µM

Please look at the items below and tell me MCC for each one, in order.
1. Cc1ccc(C(=O)N2CCC3(CC2)N=C(N)N=C(N)N3c2cccc(Cl)c2)cc1
2. CC(=O)N[C@H]1[C@H]([C@H](O)[C@H](O)CO)OC(C(=O)O)=C[C@@H]1N=C(N)N
3. COCCN1C(N)=NC(N)=NC12CCN(C(=O)c1cccn1C)CC2
4. CC(N)C12CC3CC(CC(C3)C1)C2 (stereo not given)
5. CC(C)(C)OC(=O)N1CCC2(CC1)N=C(N)N=C(N)N2Cc1cccc(Cl)c1
6. COCCN1C(N)=NC(N)=NC12CCN(C(=O)Nc1ccc(OC)cc1)CC2

// result
1. ≥ 0.8 µM
2. > 100 µM
3. > 100 µM
4. ≥ 500 µM
5. > 100 µM
6. > 100 µM

====

- testProtocol: Cytotoxicity against MDCK cells assessed as alterations in normal cell morphology measured after 3 to 6 days by microscopic analysis
- Assay type: cell-based, Canis lupus familiaris
- testConditions: dog
So I've got a bunch of compounds here, and I need their MCC values.

// query Entry under review: "CCCN1C(N)=NC(N)=NC12CCN(C(=O)C1CC1)CC2" . Reported MCC?
// result > 100 µM

// query Entry under review: "NC12CC3CC(CC(C3)C1)C2" . Reported MCC?
// result > 500 µM

// query Entry under review: "CCCN1C(N)=NC(N)=NC12CCN(C(=O)NCCC(=O)OCC)CC2" . Reported MCC?
// result > 100 µM

// query Entry under review: Cl.NC1=NC2(CCCN(Cc3ccccc3)C2)N(c2ccccc2)C(N)=N1 (stereo unspecified) . Reported MCC?
// result > 100 µM

// query Entry under review: "COCCN1C(N)=NC(N)=NC12CCN(C(=O)C1CC1)CC2" . Reported MCC?
// result > 100 µM

Please look at the items below and tell me MCC for each one, in order.
1. COCCN1C(N)=NC(N)=NC12CCN(S(=O)(=O)c1ccccc1)CC2
2. CCCCC(=O)N1CCC2(CC1)N=C(N)N=C(N)N2c1cccc(OC)c1
3. COc1cccc(N2C(N)=NC(N)=NC23CCNCC3)c1
4. CC(C)(C)OC(=O)N1CCC2(CC1)N=C(N)N=C(N)N2c1cccc(Cl)c1
5. Cl.NC1=NC2(CCCN(Cc3ccccc3)C2)N(c2ccc(Cl)cc2)C(N)=N1 (stereo unspecified)
6. NC1=NC2(CCN(C(=O)c3ccc4ccccc4c3)CC2)N(c2cccc(Cl)c2)C(N)=N1

// result
1: > 100 µM; 2: ≥ 100 µM; 3: > 100 µM; 4: ≥ 20 µM; 5: 100 µM; 6: ≥ 4 µM
